Study System: human recombinant MC5R (CHO-K1/Ga15 stable cell line, GenScript) (human, UniProt P33032 1-325)
Sequence (P33032 whole entry): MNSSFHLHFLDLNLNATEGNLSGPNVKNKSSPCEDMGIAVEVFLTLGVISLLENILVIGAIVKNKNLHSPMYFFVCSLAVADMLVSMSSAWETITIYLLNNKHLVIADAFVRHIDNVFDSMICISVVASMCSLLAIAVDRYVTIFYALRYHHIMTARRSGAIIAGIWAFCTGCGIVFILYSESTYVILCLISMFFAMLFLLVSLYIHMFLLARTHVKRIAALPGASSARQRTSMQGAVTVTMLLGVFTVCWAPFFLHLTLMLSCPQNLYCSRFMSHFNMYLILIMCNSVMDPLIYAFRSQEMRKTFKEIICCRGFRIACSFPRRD
Test Details: cell-based or functional assay
Starred links: 1 amine or outer side, 2 acyl side, 3 side chain; linkers in the order of their positions; H or OH if unused. Positions of bridges follow the written chain, without caps; N, C: chain ends. Non-standard residues stand in square brackets, D forms with d. Primed or numbered codes have the meaning given here. *: point of attachment. Phe(OCH3) = O-methyl-tyrosine, COc1ccc(C[C@H](N[*:1])C(=O)[*:2])cc1; Benzoyl(3,5-(OH)2) = O=C(c1cc(O)cc(O)c1)*; Lys(N3) = [N-]=[N+]=NCCCC[C@H](N)C(=O)O; Orn(N3) = [N-]=[N+]=NCCC[C@H](N)C(=O)O; mXylylene = c1cc(C[*:1])cc(C[*:2])c1; NMeH = CN[C@@H](Cc1c[nH]cn1)C(=O)O; dNMeF = CN[C@H](Cc1ccccc1)C(=O)O; PEG8′ = polyethylene glycol-8; Hpra = C#CCC[C@H](N)C(=O)O; Nle = CCCC[C@H](N)C(=O)O; Octanoyl = CCCCCCCC(=O)*; Pra = C#CC[C@H](N)C(=O)O
MC5R IC50 less than 200 nM is 1; MC5R IC50 greater than or equal to 200 nM is 0.

Known results for binders:
{Octanoyl-PEG8′}-GGSYSMEHFRWGKPV-NH2 [KR-017]; 0
Ac-[Nle][Orn(N3)]H[dF]RW[Hpra]K-NH2 (triazole 2-7; not fully specified; printed as Ac-Nle-[Orn(N3)-His-DPhe-Arg-Trp-Hpra]-Lys-NH2) [KR-068]; 1
Ac-[Nle]CH[dF]RCW-NH2 (linker 2-6 via mXylylene) [KR-032]; 0

Request: I wonder whether Ac-[Lys(N3)]EHFRWG[Pra]-NH2 (triazole 1-8) [KR-010] has MC5R IC50 below 200 nM. Can you tell?
Result: 0

Request: I wonder whether Ac-SYSME[NMeH]FRWGKPV-NH2 [KR-021] has MC5R IC50 below 200 nM. Can you tell?
Result: 0

Request: I wonder whether Ac-[Nle][Lys(N3)]HFRW[Pra]-NH2 (triazole 2-7) [KR-008] has MC5R IC50 below 200 nM. Can you tell?
Result: 0

Request: I wonder whether {Benzoyl(3,5-(OH)2)}-[Nle][Lys(N3)]H[dF]RW[Pra]-NH2 (triazole 2-7; not fully specified; printed as HyBA-Nle-[Lys(N3)-His-DPhe-Arg-Trp-Pra]-NH2) [KR-073] has MC5R IC50 below 200 nM. Can you tell?
Result: 1

Request: I wonder whether Ac-[Nle][Lys(N3)][Phe(OCH3)][dF]RW[Pra]K-NH2 (triazole 2-7; not fully specified; printed as Ac-Nle-[Lys(N3)-Phe(OCH3)-DPhe-Arg-Trp-Pra]-Lys-NH2) [KR-061] has MC5R IC50 below 200 nM. Can you tell?
Result: 1

Request: I wonder whether Ac-EHFRWGKPV-NH2 [KR-004] has MC5R IC50 below 200 nM. Can you tell?
Result: 0

Request: I wonder whether Ac-YSMEHFRWGKPV-NH2 [KR-001] has MC5R IC50 below 200 nM. Can you tell?
Result: 1

Request: I wonder whether Ac-[Nle][Lys(N3)]H[dNMeF]RW[Pra]-NH2 (triazole 2-7) [KR-044] has MC5R IC50 below 200 nM. Can you tell?
Result: 0
